Tested on: Nucleic Acid
testMethodNotes: Binding affinity to s(GATCCTAGGATC)2-DNA by fluorescence spectroscopy
Format: nucleic-acid assay
metric: Ka (×10⁶ /M)

- smilesStructure: "CCN(CC)c1c2ccccc2[n+](C)c2c1[nH]c1ccccc12.[Cl-]"
  measuredOn: "Nucleic Acid"
  metric: "Ka"
  unitSymbol: "×10⁶ /M"
  testResult: 0.47
- smilesStructure: "CCN(CC)CCCNc1c2ccc(Cl)cc2[n+](C)c2c1[nH]c1ccccc12.[Cl-]"
  measuredOn: "Nucleic Acid"
  metric: "Ka"
  unitSymbol: "×10⁶ /M"
  testResult: 17
- smilesStructure: "CCN(CC)Cc1ccc(Nc2c3ccccc3[n+](C)c3c2[nH]c2ccccc23)cc1O.[Cl-]"
  measuredOn: "Nucleic Acid"
  metric: "Ka"
  unitSymbol: "×10⁶ /M"
  testResult: 0.8
- smilesStructure: "C[n+]1c2ccccc2c(NCCCN)c2[nH]c3ccccc3c21.[Cl-]"
  measuredOn: "Nucleic Acid"
  metric: "Ka"
  unitSymbol: "×10⁶ /M"
  testResult: 0.25
- smilesStructure: "C[n+]1c2ccccc2c(Nc2ccccc2)c2[nH]c3ccccc3c21.[Cl-]"
  measuredOn: "Nucleic Acid"
  metric: "Ka"
  unitSymbol: "×10⁶ /M"
  testResult: 0.51
